Where these numbers come from: patent US20250171454A1

Item-by-item account of IC50
target under test: recombinant human NSD2 (amino acids 2-end) with N-terminal His tag (Homo sapiens (Human), UniProt O96028)
Sequence (O96028 2-1365 limits assumed): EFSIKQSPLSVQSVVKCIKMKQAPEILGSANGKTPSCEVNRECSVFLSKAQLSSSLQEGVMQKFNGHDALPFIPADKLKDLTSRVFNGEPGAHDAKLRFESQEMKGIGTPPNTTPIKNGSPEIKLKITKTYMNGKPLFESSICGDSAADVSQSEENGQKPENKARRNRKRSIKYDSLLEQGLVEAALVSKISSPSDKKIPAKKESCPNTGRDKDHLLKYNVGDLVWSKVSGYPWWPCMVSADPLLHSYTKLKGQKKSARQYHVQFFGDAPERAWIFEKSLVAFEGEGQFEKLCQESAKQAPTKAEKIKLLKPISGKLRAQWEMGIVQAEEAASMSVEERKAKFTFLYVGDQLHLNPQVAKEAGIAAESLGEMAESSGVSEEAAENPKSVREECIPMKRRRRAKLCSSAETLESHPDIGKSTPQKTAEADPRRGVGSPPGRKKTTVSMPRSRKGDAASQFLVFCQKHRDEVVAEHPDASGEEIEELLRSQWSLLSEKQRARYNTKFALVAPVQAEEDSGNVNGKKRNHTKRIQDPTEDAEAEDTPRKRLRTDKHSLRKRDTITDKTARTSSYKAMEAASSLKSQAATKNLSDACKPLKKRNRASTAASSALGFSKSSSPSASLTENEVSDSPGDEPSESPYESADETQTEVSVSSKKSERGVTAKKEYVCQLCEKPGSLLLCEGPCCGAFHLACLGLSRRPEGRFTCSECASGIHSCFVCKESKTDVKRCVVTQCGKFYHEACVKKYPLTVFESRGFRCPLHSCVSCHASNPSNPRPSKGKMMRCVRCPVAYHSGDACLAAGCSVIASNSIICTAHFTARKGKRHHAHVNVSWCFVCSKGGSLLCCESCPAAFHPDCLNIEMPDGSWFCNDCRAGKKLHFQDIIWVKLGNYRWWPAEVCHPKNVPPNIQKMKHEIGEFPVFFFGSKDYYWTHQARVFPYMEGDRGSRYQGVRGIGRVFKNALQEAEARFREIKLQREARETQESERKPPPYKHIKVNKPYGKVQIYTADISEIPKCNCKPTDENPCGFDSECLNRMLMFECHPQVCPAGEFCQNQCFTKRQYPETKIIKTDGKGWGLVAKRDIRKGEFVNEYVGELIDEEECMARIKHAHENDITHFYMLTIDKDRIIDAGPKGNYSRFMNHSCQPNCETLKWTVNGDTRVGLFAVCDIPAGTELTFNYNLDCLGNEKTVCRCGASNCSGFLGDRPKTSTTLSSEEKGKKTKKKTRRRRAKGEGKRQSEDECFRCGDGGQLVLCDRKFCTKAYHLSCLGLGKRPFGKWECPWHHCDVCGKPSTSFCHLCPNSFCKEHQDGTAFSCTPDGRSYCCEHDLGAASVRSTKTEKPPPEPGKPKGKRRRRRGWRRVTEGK
assay name: NSD2 inhibitory activity, modified RBC HotSpot HMT Assay
Assay type: biochemical
test context: NSD2 2 nM, chicken oligonucleosomes 0.05 mg/mL, 3H-SAM 1 μM, 1 hour at 30° C.

{"compound": "Cc1ncsc1-c1ccc(CNC(=O)[C@@H]2C[C@@H](O)CN2C(=O)[C@@H](NC(=O)CCOCCOCCOCCOc2cc(F)c(-c3cc(Cn4cnc5c(N)ncnc54)c(N4CCC[C@](N)([C@H](O)C(F)F)C4)cn3)cc2F)C(C)(C)C)cc1 [I-84]", "IC50": "100 to 1000 nM"}
{"compound": "Nc1ncnc2c1ncn2Cc1cc(-c2cc(F)c(OCCCCCCNc3cccc4c3C(=O)N(C3CCC(=O)NC3=O)C4=O)cc2F)ncc1N1CCC[C@](N)([C@H](O)C(F)F)C1 (stereo partly drawn) [I-63]", "IC50": "100 to 1000 nM"}
{"compound": "Nc1ncnc2c1ncn2Cc1cc(-c2cc(F)c(OCCCCCNc3cccc4c3C(=O)N(C3CCC(=O)NC3=O)C4=O)cc2F)ncc1N1CCC[C@](N)([C@H](O)C(F)F)C1 (stereo partly drawn) [I-62]", "IC50": "50 to 100 nM"}
{"compound": "Nc1ncnc2c1ncn2Cc1cc(-c2cc(F)c(OCC(=O)NCCCNc3cccc4c3C(=O)N(C3CCC(=O)NC3=O)C4=O)cc2F)ncc1N1CCC[C@](N)([C@H](O)C(F)F)C1 (stereo partly drawn) [I-66]", "IC50": "< 50 nM"}
{"compound": "COc1c(F)cc(-c2cc(Cn3cnc4c(NCCCCCCCNc5cccc6c5C(=O)N(C5CCC(=O)NC5=O)C6=O)ncnc43)c(N3CCC[C@](N)(c4ccccn4)C3)cn2)cc1F (stereo partly drawn) [I-82]", "IC50": "> 1000 nM"}
{"compound": "COc1c(F)cc(-c2cc(Cn3cnc4c(NCCCCCNc5cccc6c5C(=O)N(C5CCC(=O)NC5=O)C6=O)ncnc43)c(N3CCC[C@](N)(c4ccccn4)C3)cn2)cc1F (stereo partly drawn) [I-79]", "IC50": "100 to 1000 nM"}
{"compound": "COc1c(F)cc(-c2cc(Cn3cnc4c(NCCCCCCNc5cccc6c5C(=O)N(C5CCC(=O)NC5=O)C6=O)ncnc43)c(N3CCC[C@](N)(c4ccccn4)C3)cn2)cc1F (stereo partly drawn) [I-80]", "IC50": "> 1000 nM"}
{"compound": "Nc1ncnc2c1ncn2Cc1cc(-c2cc(F)c(OCC(=O)Nc3cccc4c3C(=O)N(C3CCC(=O)NC3=O)C4=O)cc2F)ncc1N1CCC[C@](N)([C@H](O)C(F)F)C1 (stereo partly drawn) [I-64]", "IC50": "< 50 nM"}
{"compound": "Nc1ncnc2c1ncn2Cc1cc(-c2cc(F)c(OCCCCNc3cccc4c3C(=O)N(C3CCC(=O)NC3=O)C4=O)c(F)c2)ncc1N1CCC[C@](N)(c2ccccn2)C1 (stereo partly drawn) [I-67]", "IC50": "< 50 nM"}

###

target under test: recombinant human NSD2 (amino acids 2-end) with N-terminal His tag (Homo sapiens (Human), UniProt O96028)
assay name: NSD2 inhibitory activity, modified RBC HotSpot HMT Assay
test context: NSD2 2 nM, chicken oligonucleosomes 0.05 mg/mL, 3H-SAM 1 μM, 1 hour at 30° C.
pIC50: −log10 of the molar value.
quantity name: pIC50

{"compound": "COc1c(F)cc(-c2cc(Cn3cnc4c(NCCCCCCNc5cccc6c5C(=O)N(C5CCC(=O)NC5=O)C6=O)ncnc43)c(N3CCC[C@@](N)(c4ccccn4)C3)cn2)cc1F (some centres unmarked)", "quantity name": "pIC50", "reported": "7.00 to 7.30"}
{"compound": "COc1cc(F)c(-c2cc(Cn3cnc4c(NCCCCCNc5cccc6c5C(=O)N(C5CCC(=O)NC5=O)C6=O)ncnc43)c(N3CCC[C@](N)([C@H](O)C(F)F)C3)cn2)cc1F (some centres unmarked)", "quantity name": "pIC50", "reported": "< 6.00"}
{"compound": "Cc1ncsc1-c1ccc(CNC(=O)[C@@H]2C[C@@H](O)CN2C(=O)[C@@H](NC(=O)CCCCCCCCCCCOc2cc(F)c(-c3cc(Cn4cnc5c(N)ncnc54)c(N4CCC[C@](N)([C@H](O)C(F)F)C4)cn3)cc2F)C(C)(C)C)cc1", "quantity name": "pIC50", "reported": "6.00 to 7.00"}
{"compound": "Nc1ncnc2c1ncn2Cc1cc(-c2cc(F)c(OCCCCNc3cccc4c3C(=O)N(C3CCC(=O)NC3=O)C4=O)cc2F)ncc1N1CCC[C@](N)([C@H](O)C(F)F)C1 (some centres unmarked)", "quantity name": "pIC50", "reported": "> 7.30"}
{"compound": "Nc1ncnc2c1ncn2Cc1cc(-c2cc(F)c(OCCCCCNc3cccc4c3C(=O)N(C3CCC(=O)NC3=O)C4=O)c(F)c2)ncc1N1CCC[C@](N)(c2ccccn2)C1 (some centres unmarked)", "quantity name": "pIC50", "reported": "> 7.30"}

###

target under test: recombinant human NSD2 (amino acids 2-end) with N-terminal His tag (Homo sapiens (Human), UniProt O96028)
assay name: NSD2 inhibitory activity, modified RBC HotSpot HMT Assay
test context: NSD2 2 nM, chicken oligonucleosomes 0.05 mg/mL, 3H-SAM 1 μM, 1 hour at 30° C.
quantity name: IC50

{"molecule": "Nc1ncnc2c1ncn2Cc1cc(-c2cc(F)c(OCCCCNc3cccc4c3C(=O)N(C3CCC(=O)NC3=O)C4=O)c(F)c2)ncc1N1CCC[C@@](N)(c2ccccn2)C1 (some centres unmarked)", "quantity name": "IC50", "reported": "> 1000 nM"}
{"molecule": "Nc1ncnc2c1ncn2Cc1cc(-c2cc(F)c(OCC(=O)NCCNc3cccc4c3C(=O)N(C3CCC(=O)NC3=O)C4=O)cc2F)ncc1N1CCC[C@](N)([C@H](O)C(F)F)C1 (some centres unmarked)", "quantity name": "IC50", "reported": "< 50 nM"}
{"molecule": "Nc1ncnc2c1ncn2Cc1cc(-c2cc(F)c(OCCCCCCNc3cccc4c3C(=O)N(C3CCC(=O)NC3=O)C4=O)c(F)c2)ncc1N1CCC[C@](N)(c2ccccn2)C1 (some centres unmarked)", "quantity name": "IC50", "reported": "< 50 nM"}
{"molecule": "Nc1ncnc2c1ncn2Cc1cc(-c2cc(F)c(OCCCCCNc3cccc4c3C(=O)N(C3CCC(=O)NC3=O)C4=O)c(F)c2)ncc1N1CCC[C@@](N)(c2ccccn2)C1 (some centres unmarked)", "quantity name": "IC50", "reported": "> 1000 nM"}
{"molecule": "COc1cc(F)c(-c2cc(Cn3cnc4c(NCCCCCCNc5cccc6c5C(=O)N(C5CCC(=O)NC5=O)C6=O)ncnc43)c(N3CCC[C@](N)([C@H](O)C(F)F)C3)cn2)cc1F (some centres unmarked)", "quantity name": "IC50", "reported": "> 1000 nM"}
